Biological target: CDK14/Cyclin Y (Homo sapiens)
Sequence (O94921 whole entry): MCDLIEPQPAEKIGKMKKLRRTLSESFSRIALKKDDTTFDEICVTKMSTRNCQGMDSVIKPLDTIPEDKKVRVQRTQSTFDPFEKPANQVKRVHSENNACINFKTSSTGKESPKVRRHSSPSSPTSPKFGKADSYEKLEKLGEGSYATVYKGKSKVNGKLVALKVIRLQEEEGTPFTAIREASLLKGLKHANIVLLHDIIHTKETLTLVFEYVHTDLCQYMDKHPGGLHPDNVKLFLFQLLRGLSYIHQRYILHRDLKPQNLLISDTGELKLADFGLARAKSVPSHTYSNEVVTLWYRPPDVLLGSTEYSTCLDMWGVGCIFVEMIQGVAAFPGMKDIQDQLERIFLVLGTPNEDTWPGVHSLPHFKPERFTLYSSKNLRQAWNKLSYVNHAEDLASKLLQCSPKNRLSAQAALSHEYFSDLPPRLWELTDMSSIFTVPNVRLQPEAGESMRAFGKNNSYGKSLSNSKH
Sequence (Q8ND76 whole entry partner): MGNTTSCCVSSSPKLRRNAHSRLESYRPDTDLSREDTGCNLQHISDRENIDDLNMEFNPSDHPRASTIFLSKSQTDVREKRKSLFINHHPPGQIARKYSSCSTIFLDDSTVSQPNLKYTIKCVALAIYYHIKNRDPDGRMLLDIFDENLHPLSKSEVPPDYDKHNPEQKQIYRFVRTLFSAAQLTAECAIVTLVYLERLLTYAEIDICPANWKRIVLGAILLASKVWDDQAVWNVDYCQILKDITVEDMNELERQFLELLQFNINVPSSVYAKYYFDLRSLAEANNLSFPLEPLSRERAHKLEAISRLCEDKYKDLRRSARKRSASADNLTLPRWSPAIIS
Assay: NanoBRET live-cell target engagement, CDK14-NanoLuc/Cyclin Y in HEK-293
Type: binding
Settings: CDK14/Y; 10µM; average of replicates
measured_quantity: Inhibition at 10µM (%) Average
Please give a number only; it is taken to be in %.

>>> meas_value("CCC(CO)Nc1nc(Nc2cccc(-c3ccccn3)c2)c2ncn(C(C)C)c2n1.Cl.O [(R) - DRF053]")
12.3
>>> meas_value("O=C(Nc1c[nH]nc1-c1ccccn1)c1nn(C2CCNCC2)cc1Cl [BDP5290]")
-7.4
>>> meas_value("CNC1CCN(C(=O)c2ccc(Nc3ncc(F)c(-c4cnc(C)n4C(C)C)n3)cc2)C1 (stereo not shown) [AZD5597]")
93.5

Turning now to a further molecule:
Noted for CC(C)c1cnn2c(NCc3ccccc3)cc(N[C@@H](CO)[C@H](O)CO)nc12 [BS-194] : its Inhibition at 10µM (%) Average reads 72.1
